biological target: human Cot catalytic domain (30-397 amino acids) (Homo sapiens, UniProt P41279); construct: Purified recombinant human Cot catalytic domain (30-397 amino acids) was purchased from Cama Biosciences; purchased Cama Biosciences (so in the source); test: High Throughput Cot Biochemical Assay (KinEASE TR-FRET); conditions: Cot KinEASE TR-FRET (HTRF) biochemical assay, 400 μM ATP; read-out: IC50 HTRF
Sequence (P41279 30-397): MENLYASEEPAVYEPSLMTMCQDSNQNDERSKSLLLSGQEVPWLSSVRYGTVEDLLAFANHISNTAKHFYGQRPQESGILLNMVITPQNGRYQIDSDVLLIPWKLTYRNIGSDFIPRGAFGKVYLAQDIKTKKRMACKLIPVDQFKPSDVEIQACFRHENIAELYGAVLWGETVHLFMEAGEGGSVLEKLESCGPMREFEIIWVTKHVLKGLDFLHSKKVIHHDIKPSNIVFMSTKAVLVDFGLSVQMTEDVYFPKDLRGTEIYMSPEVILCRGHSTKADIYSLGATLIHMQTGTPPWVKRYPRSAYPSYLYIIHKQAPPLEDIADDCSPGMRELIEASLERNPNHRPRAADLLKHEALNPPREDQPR
measuredAttribute: IC50 (nM)

CC(C)(C)CNc1c(C#N)cnc2c(Cl)cc(N[C@H](c3cn(C4(C(N)=O)CC4)nn3)c3ccccc3Cl)cc12    9
CC(C)(C)CNc1c(C#N)cnc2c(Cl)cc(N[C@@H](c3ccc(F)cc3)c3c[nH]nn3)cc12    47
[2H][C@](Nc1cc(F)c2ncc(C#N)c(N[C@@H](CCC#N)c3ccccc3)c2c1)(c1cccc(C#N)c1)c1cn(C2CC2)nn1    2090

A = CC(C)(C)CNc1c(C#N)cnc2c(Cl)cc(N[C@@H](c3ccc(F)cc3)c3cn(-c4ccccc4)nn3)cc12
B = [2H][C@](Nc1cc(Cl)c2ncc(C#N)c(N[C@H](CC)c3ccccc3)c2c1)(c1cccc(C#N)c1)c1cn(CC=C)nn1
C = N#Cc1cnc2c(Cl)cc(N[C@@H](c3ccc(F)cc3)c3cn(C4CC4)nn3)cc2c1NC(CF)c1ccccc1 (some centres unmarked)
D = [2H][C@](Nc1cc(-c2cn[nH]c2)c2ncc(C#N)c(NCC(C)(C)C)c2c1)(c1ccc(F)cc1)c1cn(C2CC2)nn1
[ask] Would you mind ranking these molecules by ascending IC50? Arrange the labels as the request states and list them.
[reply] B, A, C, D
